tested_target: EGFR exon 20 ASV Ins V769_D770 (Ba/F3 cells) (Homo sapiens, UniProt P00533, INS769ASV)
Construct: expressed in transfected cells; host or cells: Ba/F3 (murine pro-B cells), retroviral transduction, puromycin selection, IL3-independent pool
Sequence (P00533 with tags, fused parts or gaps INS769ASV): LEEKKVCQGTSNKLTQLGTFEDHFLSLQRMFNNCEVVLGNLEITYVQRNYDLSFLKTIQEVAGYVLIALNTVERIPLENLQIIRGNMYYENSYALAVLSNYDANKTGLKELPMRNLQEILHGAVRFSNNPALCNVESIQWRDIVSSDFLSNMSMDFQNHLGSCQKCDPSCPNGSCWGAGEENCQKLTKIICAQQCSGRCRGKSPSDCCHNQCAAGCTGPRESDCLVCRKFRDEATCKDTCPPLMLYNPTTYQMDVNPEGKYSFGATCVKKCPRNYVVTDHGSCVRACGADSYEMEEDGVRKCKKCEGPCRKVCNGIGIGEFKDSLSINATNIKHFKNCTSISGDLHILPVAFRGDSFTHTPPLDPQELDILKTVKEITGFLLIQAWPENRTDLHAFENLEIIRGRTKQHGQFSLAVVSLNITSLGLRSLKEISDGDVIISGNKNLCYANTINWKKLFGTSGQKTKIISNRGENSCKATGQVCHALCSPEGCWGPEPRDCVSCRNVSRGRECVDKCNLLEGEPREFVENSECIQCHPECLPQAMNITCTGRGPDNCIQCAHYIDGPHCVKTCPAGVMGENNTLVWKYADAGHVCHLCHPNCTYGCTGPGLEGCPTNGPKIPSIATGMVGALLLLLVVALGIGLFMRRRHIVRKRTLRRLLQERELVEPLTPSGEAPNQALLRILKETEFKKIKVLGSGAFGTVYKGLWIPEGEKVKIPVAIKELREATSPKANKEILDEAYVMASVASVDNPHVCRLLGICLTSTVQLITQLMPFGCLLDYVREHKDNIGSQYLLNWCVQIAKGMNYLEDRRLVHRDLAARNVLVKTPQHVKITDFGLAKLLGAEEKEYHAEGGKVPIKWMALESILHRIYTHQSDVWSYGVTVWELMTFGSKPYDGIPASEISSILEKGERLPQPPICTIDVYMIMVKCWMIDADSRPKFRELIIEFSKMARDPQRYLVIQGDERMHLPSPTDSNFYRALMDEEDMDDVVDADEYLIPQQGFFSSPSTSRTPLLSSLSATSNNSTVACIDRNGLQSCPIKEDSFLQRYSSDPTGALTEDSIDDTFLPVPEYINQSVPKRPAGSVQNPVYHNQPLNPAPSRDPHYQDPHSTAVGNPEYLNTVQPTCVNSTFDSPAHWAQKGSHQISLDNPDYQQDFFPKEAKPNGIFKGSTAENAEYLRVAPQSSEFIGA
assay_details: Inhibitor activity on EGFR phosphorylation (pEGFR AlphaLISA, 2 h), Ba/F3 EGFR exon 20 ASV Ins
Type: cell-based
settings: EGFR phosphorylation, AlphaLISA, 2 hours; read-out: ASV IC50 (pEGFR)
pIC50: −log10 of the molar value.
measure: pIC50

compound	tested_target	pIC50
COc1c(Cl)cccc1Nc1c(-c2ccnc(Nc3cnn(C)c3)n2)[nH]c2c1C(=O)NCC2 [compound 109]	EGFR exon 20 ASV Ins V769_D770 (Ba/F3 cells) (Homo sapiens, UniProt P00533, INS769ASV)	> 7.00

Entry CNc1nccc(-c2[nH]c3c(c2Nc2cccc(F)c2OC)C(=O)NCC3)n1 [Compound 691] : reported pIC50 = ?
> 7.00

# pIC50 lookup, item COc1c(Cl)cccc1Nc1c(-c2ccnc(NC(C)C)n2)[nH]c2c1C(=O)NCC2 [compound 225]
6.00 to 7.00

----------
tested_target: EGFR exon 20 SVD Ins D770_N771 (Ba/F3 cells) (Homo sapiens, UniProt P00533, INS770SVD)
Construct: expressed in transfected cells; host or cells: Ba/F3 (murine pro-B cells), retroviral transduction, puromycin selection, IL3-independent pool
Sequence (P00533 with tags, fused parts or gaps INS770SVD): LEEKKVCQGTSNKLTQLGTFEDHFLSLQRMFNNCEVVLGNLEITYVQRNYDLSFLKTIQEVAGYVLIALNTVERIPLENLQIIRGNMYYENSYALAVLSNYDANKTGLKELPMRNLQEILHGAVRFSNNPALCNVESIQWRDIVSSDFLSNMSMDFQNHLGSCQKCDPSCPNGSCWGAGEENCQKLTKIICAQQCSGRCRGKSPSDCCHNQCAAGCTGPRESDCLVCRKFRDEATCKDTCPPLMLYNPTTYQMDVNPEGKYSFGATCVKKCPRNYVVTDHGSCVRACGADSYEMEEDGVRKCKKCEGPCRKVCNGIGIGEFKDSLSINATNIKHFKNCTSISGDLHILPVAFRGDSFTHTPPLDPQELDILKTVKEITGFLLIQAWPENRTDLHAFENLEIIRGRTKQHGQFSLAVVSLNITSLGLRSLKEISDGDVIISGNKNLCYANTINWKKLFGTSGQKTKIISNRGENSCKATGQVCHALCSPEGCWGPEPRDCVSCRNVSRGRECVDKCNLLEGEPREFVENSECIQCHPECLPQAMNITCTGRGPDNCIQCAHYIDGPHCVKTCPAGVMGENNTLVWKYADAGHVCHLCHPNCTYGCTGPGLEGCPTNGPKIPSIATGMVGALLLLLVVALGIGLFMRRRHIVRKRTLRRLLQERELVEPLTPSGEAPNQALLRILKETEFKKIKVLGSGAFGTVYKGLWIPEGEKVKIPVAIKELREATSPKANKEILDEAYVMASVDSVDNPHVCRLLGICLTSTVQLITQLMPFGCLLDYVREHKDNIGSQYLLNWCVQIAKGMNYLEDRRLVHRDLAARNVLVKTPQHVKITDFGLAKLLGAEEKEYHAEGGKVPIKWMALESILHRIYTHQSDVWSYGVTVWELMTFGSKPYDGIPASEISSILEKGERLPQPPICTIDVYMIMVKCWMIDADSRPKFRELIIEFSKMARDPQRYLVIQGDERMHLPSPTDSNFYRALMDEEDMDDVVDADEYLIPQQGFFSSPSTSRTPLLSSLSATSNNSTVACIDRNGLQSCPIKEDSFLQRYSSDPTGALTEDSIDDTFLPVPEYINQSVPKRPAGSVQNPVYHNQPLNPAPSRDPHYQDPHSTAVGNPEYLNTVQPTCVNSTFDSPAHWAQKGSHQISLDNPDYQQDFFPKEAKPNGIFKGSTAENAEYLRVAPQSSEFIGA
assay_details: Inhibitor activity on EGFR-dependent cell growth (CellTiter-Glo, 72 h), Ba/F3 EGFR exon 20 SVD Ins
Assay type: cell-based
settings: read-out: BaF3 SVD IC50
pIC50: −log10 of the molar value.
Property: pIC50; scope: individual molecules

molecule	pIC50
COc1c(Cl)cccc1Nc1c(-c2ccnc3ccc(OC(C)C)nc23)[nH]c2c1C(=O)NCC2 [compound 762]	> 7.00
COc1c(Nc2c(-c3ccnc(N)n3)[nH]c3c2C(=O)NCC3)ccc(F)c1Cl [compound 713]	6.00 to 7.00
COc1c(Cl)cccc1Nc1c(-c2ccnc(NC[C@H]3COCCO3)n2)[nH]c2c1C(=O)NCC2 [compound 723]	< 6.00
COc1c(Cl)cccc1Nc1c(-c2ccnc(NCc3ccn(C)n3)n2)[nH]c2c1C(=O)NCC2 [Compound 709]	> 7.00
COc1c(Cl)cccc1Nc1c(-c2ccnc(NCC(F)F)n2)[nH]c2c1C(=O)NCC2 [Compound 702]	6.00 to 7.00

Request the reported pIC50 associated with C=CC(=O)N1CCC2(CC1)CNC(=O)c1c2[nH]c(-c2ccncc2F)c1Nc1cccc(Br)c1OC [Compound 561]
> 7.00

Suppose we examine the molecule COc1ncc2nccc(-c3[nH]c4c(c3Nc3cccc(Cl)c3)C(=O)NCC4)c2n1 [Compound 798] ; what pIC50 value has been reported?
> 7.00

Suppose we examine the molecule Nc1nccc(-c2[nH]c3c(c2Nc2cccc4c2OCO4)C(=O)NCC3)n1 [compound 306] ; what pIC50 value has been reported?
< 6.00

----------
tested_target: EGFR exon 20 NPG Ins D770_N771 (Ba/F3 cells) (Homo sapiens, UniProt P00533, INS770NPG)
Construct: expressed in transfected cells; host or cells: Ba/F3 (murine pro-B cells), retroviral transduction, puromycin selection, IL3-independent pool
Sequence (P00533 with tags, fused parts or gaps INS770NPG): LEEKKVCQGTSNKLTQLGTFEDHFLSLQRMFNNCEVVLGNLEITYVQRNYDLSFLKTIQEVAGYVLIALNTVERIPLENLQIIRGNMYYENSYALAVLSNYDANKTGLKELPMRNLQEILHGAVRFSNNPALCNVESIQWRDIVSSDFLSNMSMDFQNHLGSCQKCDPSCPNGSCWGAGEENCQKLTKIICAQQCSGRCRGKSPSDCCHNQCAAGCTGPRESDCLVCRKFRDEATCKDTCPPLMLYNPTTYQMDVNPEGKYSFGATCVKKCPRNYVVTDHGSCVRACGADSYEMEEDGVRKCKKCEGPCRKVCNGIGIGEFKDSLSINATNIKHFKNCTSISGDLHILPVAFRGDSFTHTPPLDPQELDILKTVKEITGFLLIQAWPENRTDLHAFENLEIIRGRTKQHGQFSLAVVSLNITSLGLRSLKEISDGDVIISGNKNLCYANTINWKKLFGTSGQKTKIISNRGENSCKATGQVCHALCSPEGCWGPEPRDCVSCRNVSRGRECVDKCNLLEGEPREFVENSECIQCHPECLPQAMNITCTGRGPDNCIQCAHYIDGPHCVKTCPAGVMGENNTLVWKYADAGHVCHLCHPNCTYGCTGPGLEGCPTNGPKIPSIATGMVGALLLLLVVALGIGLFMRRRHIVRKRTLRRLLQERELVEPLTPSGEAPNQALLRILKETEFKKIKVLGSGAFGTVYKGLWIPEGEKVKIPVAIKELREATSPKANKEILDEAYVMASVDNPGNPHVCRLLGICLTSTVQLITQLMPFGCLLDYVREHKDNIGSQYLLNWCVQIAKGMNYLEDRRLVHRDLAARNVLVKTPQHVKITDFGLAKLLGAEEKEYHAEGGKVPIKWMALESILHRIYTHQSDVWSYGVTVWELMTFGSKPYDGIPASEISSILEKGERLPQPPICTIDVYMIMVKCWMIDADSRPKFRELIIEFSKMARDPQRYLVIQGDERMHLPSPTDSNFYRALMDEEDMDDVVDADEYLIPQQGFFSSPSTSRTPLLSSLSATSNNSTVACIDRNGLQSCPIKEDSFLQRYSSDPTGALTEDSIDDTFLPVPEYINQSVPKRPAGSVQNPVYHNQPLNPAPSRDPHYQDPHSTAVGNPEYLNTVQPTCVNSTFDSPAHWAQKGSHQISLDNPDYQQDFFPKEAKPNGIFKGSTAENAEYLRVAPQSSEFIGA
assay_details: Inhibitor activity on EGFR phosphorylation (pEGFR AlphaLISA, 2 h), Ba/F3 EGFR exon 20 NPG Ins
Assay type: cell-based
pIC50: −log10 of the molar value.
Below: a set of entries, each annotated with reported pIC50.

compound	tested_target	recorded_measurement
COc1ccc2nccc(-c3[nH]c4c(c3Nc3cccc(F)c3OC)C(=O)NCC4)c2n1	EGFR exon 20 NPG Ins D770_N771 (Ba/F3 cells) (Homo sapiens, UniProt P00533, INS770NPG)	> 7.00
CNc1ccc2nccc(-c3[nH]c4c(c3Nc3cccc(Cl)c3OC)C(=O)NCC4)c2n1	EGFR exon 20 NPG Ins D770_N771 (Ba/F3 cells) (Homo sapiens, UniProt P00533, INS770NPG)	> 7.00
COc1c(Cl)cccc1Nc1c(-c2ccnc3ccc(OCC4CC(F)(F)C4)nc23)[nH]c2c1C(=O)NCC2	EGFR exon 20 NPG Ins D770_N771 (Ba/F3 cells) (Homo sapiens, UniProt P00533, INS770NPG)	> 7.00
COc1c(Cl)cccc1Nc1c(-c2ccnc3[nH]cnc23)[nH]c2c1C(=O)NCC2	EGFR exon 20 NPG Ins D770_N771 (Ba/F3 cells) (Homo sapiens, UniProt P00533, INS770NPG)	> 7.00
COc1c(F)cccc1Nc1c(-c2ccnc(-c3ccccc3)c2)[nH]c2c1C(=O)NCC2	EGFR exon 20 NPG Ins D770_N771 (Ba/F3 cells) (Homo sapiens, UniProt P00533, INS770NPG)	< 6.00
COc1c(F)cccc1Nc1c(-c2ccnc3cccnc23)[nH]c2c1C(=O)NCC2	EGFR exon 20 NPG Ins D770_N771 (Ba/F3 cells) (Homo sapiens, UniProt P00533, INS770NPG)	> 7.00

Any idea what pIC50 came out for Cc1c(F)cccc1Nc1c(-c2ccnc(N)n2)[nH]c2c1C(=O)NCC2 on EGFR exon 20 NPG Ins D770_N771 (Ba/F3 cells) (Homo sapiens, UniProt P00533, INS770NPG)?
> 7.00

Param readout= pIC50; system= EGFR exon 20 NPG Ins D770_N771 (Ba/F3 cells) (Homo sapiens, UniProt P00533, INS770NPG); entry= COc1c(Cl)cccc1Nc1c(-c2ccnc3c(N)noc23)[nH]c2c1C(=O)NCC2 ; returns value.
> 7.00

Requested read-out pIC50, target or system EGFR exon 20 NPG Ins D770_N771 (Ba/F3 cells) (Homo sapiens, UniProt P00533, INS770NPG), entry COc1c(Cl)cccc1Nc1c(-c2ccnc(C)n2)[nH]c2c1C(=O)NC[C@@H]2CC1COCCO1 (stereo in doubt)
> 7.00

# value lookup — system EGFR exon 20 NPG Ins D770_N771 (Ba/F3 cells) (Homo sapiens, UniProt P00533, INS770NPG), readout pIC50, item COc1c(Cl)cccc1Nc1c(-c2ccnc(N)c2)[nH]c2c1C(=O)NCC2
> 7.00

Please tell me: pIC50 of C=CC(=O)N1CCC2(CC1)CNC(=O)c1c2[nH]c(-c2ccnc3ccc(OC)nc23)c1Nc1cccc(F)c1OC , system EGFR exon 20 NPG Ins D770_N771 (Ba/F3 cells) (Homo sapiens, UniProt P00533, INS770NPG)?
> 7.00

Which pIC50 is reported with EGFR exon 20 NPG Ins D770_N771 (Ba/F3 cells) (Homo sapiens, UniProt P00533, INS770NPG) for this entry: COc1c(F)cccc1Nc1c(-c2ncnc3cccnc23)[nH]c2c1C(=O)NCC2 ?
6.00 to 7.00

So what pIC50 did COc1c(F)cccc1Nc1c(-c2ncnc3[nH]ncc23)[nH]c2c1C(=O)NCC2 get with EGFR exon 20 NPG Ins D770_N771 (Ba/F3 cells) (Homo sapiens, UniProt P00533, INS770NPG)?
6.00 to 7.00

----------
# IC50 values compiled below
tested_target: EGFR exon 20 ASV Ins V769_D770 (Ba/F3 cells) (Homo sapiens, UniProt P00533, INS769ASV)
Construct: expressed in transfected cells; host or cells: Ba/F3 (murine pro-B cells), retroviral transduction, puromycin selection, IL3-independent pool
assay_details: Inhibitor activity on EGFR-dependent cell growth (CellTiter-Glo, 72 h), Ba/F3 EGFR exon 20 ASV Ins
Format: cell-based
settings: read-out: BaF3 ASV IC50

Solved cases below.
molecule	IC50
COc1ncc2nccc(-c3[nH]c4c(c3Nc3cccc(Cl)c3C(F)(F)F)C(=O)NCC4)c2n1	100 to 1000 nM
C=CC(=O)N1CCC2(CC1)CNC(=O)c1c2[nH]c(-c2ccncc2F)c1Nc1cc(F)cc(F)c1OC	< 100 nM
COc1c(F)cccc1Nc1c(-c2ccnc3[nH]ccc23)[nH]c2c1C(=O)NCC2	100 to 1000 nM
CCn1cc(Nc2nccc(-c3[nH]c4c(c3Nc3cccc(Cl)c3OC)C(=O)NCC4)n2)nn1	< 100 nM
COc1c(Cl)cccc1Nc1c(-c2ccncc2F)[nH]c2c1C(=O)NC[C@@H]2CC(N)=O	> 1000 nM

Test system EGFR exon 20 ASV Ins V769_D770 (Ba/F3 cells) (Homo sapiens, UniProt P00533, INS769ASV); read-out IC50; what value for COc1c(Cl)cccc1Nc1c(-c2ccncc2F)[nH]c2c1C(=O)NCC21CN(CC(F)F)C1 ?
100 to 1000 nM

Request body: readout IC50, system EGFR exon 20 ASV Ins V769_D770 (Ba/F3 cells) (Homo sapiens, UniProt P00533, INS769ASV), query COCC[C@H]1CNC(=O)c2c1[nH]c(-c1ccnc(C)n1)c2Nc1cccc(Cl)c1OC [463b] . Return the value.
< 100 nM

Hello, I am looking for reported IC50 with EGFR exon 20 ASV Ins V769_D770 (Ba/F3 cells) (Homo sapiens, UniProt P00533, INS769ASV) for COc1c(F)cccc1Nc1c(-c2ccnc(C)n2)[nH]c2c1C(=O)NCC2C[C@H]1COCCO1 (single isomer, unassigned) [Compound 603] . Could you help?
< 100 nM

# query: IC50 | item COc1c(F)cccc1Nc1c(-c2ccnc(N)c2F)[nH]c2c1C(=O)NCC2 | system: EGFR exon 20 ASV Ins V769_D770 (Ba/F3 cells) (Homo sapiens, UniProt P00533, INS769ASV)
100 to 1000 nM

Checklist item: IC50 tested on EGFR exon 20 ASV Ins V769_D770 (Ba/F3 cells) (Homo sapiens, UniProt P00533, INS769ASV), entry COc1c(Cl)cccc1Nc1c(-c2ccncc2F)[nH]c2c1C(=O)NCC21COC1 , value?
100 to 1000 nM

Field: IC50 (EGFR exon 20 ASV Ins V769_D770 (Ba/F3 cells) (Homo sapiens, UniProt P00533, INS769ASV)). Entry: COc1ccc2nccc(-c3[nH]c4c(c3Nc3cccc(Cl)c3OC)C(=O)NC[C@H]4C)c2n1 [310a]
< 100 nM

Give the reported IC50 for CCc1c(F)cccc1Nc1c(-c2ccnc(N)n2)[nH]c2c1C(=O)NCC2 (system: EGFR exon 20 ASV Ins V769_D770 (Ba/F3 cells) (Homo sapiens, UniProt P00533, INS769ASV)).
100 to 1000 nM

Given the entry COc1c(Cl)cccc1Nc1c(-c2ccnc(Nc3ccn(CC(C)(C)O)n3)n2)[nH]c2c1C(=O)NCC2 , what IC50 was observed with EGFR exon 20 ASV Ins V769_D770 (Ba/F3 cells) (Homo sapiens, UniProt P00533, INS769ASV)?
< 100 nM

Give recorded IC50 with EGFR exon 20 ASV Ins V769_D770 (Ba/F3 cells) (Homo sapiens, UniProt P00533, INS769ASV) for the following molecule: COc1c(Cl)cccc1Nc1c(-c2ccnc3[nH]cnc23)[nH]c2c1C(=O)NCC2
< 100 nM

Query for EGFR exon 20 ASV Ins V769_D770 (Ba/F3 cells) (Homo sapiens, UniProt P00533, INS769ASV): what IC50 does the record show for COc1c(F)cccc1Nc1c(-c2ccncc2)[nH]c2c1C(=O)NCC2 ?
100 to 1000 nM

Give EGFR exon 20 ASV Ins V769_D770 (Ba/F3 cells) (Homo sapiens, UniProt P00533, INS769ASV) IC50 for COc1c(F)cccc1Nc1c(-c2ccnc(C)n2)[nH]c2c1C(=O)NCC2C[C@H]1COCCO1 (single isomer, unassigned) [Compound 606]
< 100 nM

Param readout = IC50; param system = EGFR exon 20 ASV Ins V769_D770 (Ba/F3 cells) (Homo sapiens, UniProt P00533, INS769ASV); param query = COc1c(Cl)cccc1Nc1c(-c2ccncc2F)[nH]c2c1C(=O)NC[C@@H]2CC1COC1 [468a] ; response: value
> 1000 nM

Return IC50 measured with EGFR exon 20 ASV Ins V769_D770 (Ba/F3 cells) (Homo sapiens, UniProt P00533, INS769ASV) given this molecule: COc1c(Cl)cccc1Nc1c(-c2ccnc(NCc3ccccc3)n2)[nH]c2c1C(=O)NCC2
100 to 1000 nM

// map COc1c(Cl)cccc1Nc1c(-c2ccncc2F)[nH]c2c1C(=O)NC[C@@]21CCN(CC(F)F)C1 to recorded IC50 (system: EGFR exon 20 ASV Ins V769_D770 (Ba/F3 cells) (Homo sapiens, UniProt P00533, INS769ASV))
100 to 1000 nM

Test system EGFR exon 20 ASV Ins V769_D770 (Ba/F3 cells) (Homo sapiens, UniProt P00533, INS769ASV); read-out IC50; what value for Cc1ccc2nccc(-c3[nH]c4c(c3Nc3cccc(F)c3C)C(=O)NCC4)c2n1 ?
< 100 nM

Can you look up IC50 on EGFR exon 20 ASV Ins V769_D770 (Ba/F3 cells) (Homo sapiens, UniProt P00533, INS769ASV) for CCn1nncc1Nc1nccc(-c2[nH]c3c(c2Nc2cccc(Cl)c2OC)C(=O)NCC3)n1 ?
< 100 nM

Query for EGFR exon 20 ASV Ins V769_D770 (Ba/F3 cells) (Homo sapiens, UniProt P00533, INS769ASV): what IC50 does the record show for COc1c(F)cccc1Nc1c(-c2ccnc3cnc(C(F)(F)F)nc23)[nH]c2c1C(=O)NCC2 ?
100 to 1000 nM

Short answer please: IC50, EGFR exon 20 ASV Ins V769_D770 (Ba/F3 cells) (Homo sapiens, UniProt P00533, INS769ASV), entry COCCC1(C)CNC(=O)c2c1[nH]c(-c1ccncc1F)c2Nc1cccc(Cl)c1OC (single isomer, unassigned) [Compound 779]
< 100 nM
